# Tested on: HT-1080 (Other Solid Carcinomas)
# Test protocol: combination Emax (second highest fraction inhibited in the dose matrix, 72 h); higher = more inhibition; extreme values may be limits of the assay
Quantity measured: combination Emax
Output spec: single numeric token, no unit.

Compound	Quantity measured	Number
Cc1c2c(nn1C)CSCc1cc(n(C)n1)CSc1cc(c3ccccc3c1)OCCCc1c(C(=O)O)n(C)c3c-2c(Cl)ccc13 [AZD5991] + C[C@@H](Nc1cc(F)cc(F)c1)c1cc(C(=O)N(C)C)cc2c(=O)cc(N3CCOCC3)oc12 [AZD8186] (first compound max 1 µM, 7x7, partner max 3 µM)	combination Emax	0.157

Continue with the compound presented below.
Please look up its combination Emax: CS(=O)(=O)CCNCc1ccc(-c2ccc3ncnc(Nc4ccc(OCc5cccc(F)c5)c(Cl)c4)c3c2)o1 [Lapatinib] + C[C@@H](Oc1cc(-c2cnn(C3CCNCC3)c2)cnc1N)c1c(Cl)ccc(F)c1Cl [Crizotinib] (first compound max 10 µM, 7x7, partner max 10 µM) 0.823
